// reported Activity per item
Test system: Jurkat
protocolDetails: Cytotoxicity against human Jurkat T cells assessed as compound concentration required to induce up to 30% cell death after 72 hrs by CellTox green assay

compound: Cc1c(-c2ccc(-c3ccccc3F)cc2)nc2ccc(F)cc2c1C(=O)O [BREQUINAR]
result: 45 µM
//
compound: O=C(Nc1c(F)c(F)c(-c2ccccc2)c(F)c1F)c1nn(CC2CC2)nc1O
result: 11 µM
//
compound: O=C(Nc1c(F)c(F)c(-c2cccc(OC(F)(F)F)c2)c(F)c1F)c1nsnc1O
result: 5.2 µM
//
compound: Cn1nnc(O)c1C(=O)Nc1c(F)c(F)c(-c2ccccc2)c(F)c1F
result: 8.3 µM
//
compound: C/C(O)=C(\C#N)C(=O)Nc1ccc(C(F)(F)F)cc1 [TERIFLUNOMIDE]
result: 53 µM
//
compound: Cn1nc(O)c(C(=O)Nc2c(F)cc(-c3ccccc3)cc2F)n1
result: 49.3 µM
//
compound: Cn1nc(O)c(C(=O)Nc2ccc(-c3ccccc3)cc2F)n1
result: 56.8 µM
//
compound: O=C(Nc1c(F)c(F)c(-c2ccccc2)c(F)c1F)c1c(O)nnn1CC1CC1
result: 6 µM
//
compound: O=C(Nc1c(F)c(F)c(-c2cccc(OC(F)(F)F)c2)c(F)c1F)c1no[nH]c1=O
result: > 100 µM
//
compound: Cc1c(C(=O)Nc2c(F)c(F)c(-c3ccccc3)c(F)c2F)c(O)nn1C
result: 82 µM

**Query** Give its Activity value. Item: `O=C(Nc1c(F)c(F)c(-c2ccccc2)c(F)c1F)c1no[nH]c1=O`
**Result** > 100 µM

**Query** Give its Activity value. Item: `O=C(Nc1c(F)c(F)c(-c2ccccc2)c(F)c1F)c1nsnc1O`
**Result** 78 µM

----------
protocolDetails: Solubility in pH 7.4 PBS buffer at 1 mg after 24 hrs by HPLC-UV method
Type: physicochemical
// reported solubility at 24 h per item
Provide the reading as a plain figure in µM.

Consider the worked cases shown below.
molecule: O=C(Nc1c(F)c(F)c(-c2ccccc2)c(F)c1F)c1nsnc1O
solubility at 24 h, µM: 1690
--
molecule: Cc1c(-c2ccc(-c3ccccc3F)cc2)nc2ccc(F)cc2c1C(=O)O [BREQUINAR]
solubility at 24 h, µM: 359

**Query** Give its solubility at 24 h value. Item: `Cn1nnc(O)c1C(=O)Nc1c(F)c(F)c(-c2ccccc2)c(F)c1F`
**Result** 48

----------
protocolDetails: Solubility in pH 7.4 PBS buffer with 1% DMSO at 1 mg after 24 hrs by HPLC-UV method
Type: physicochemical
valueType: solubility at 24 h

**Query** Give its solubility at 24 h value. Item: `Cc1c(C(=O)Nc2c(F)c(F)c(-c3ccccc3)c(F)c2F)c(O)nn1C`
**Result** 7 µM

----------
// reported remaining at 72 h, 100 µM per item
protocolDetails: Stability in human Jurkat cells assessed as parent compound remaining at 100 uM after 72 hrs by HPLC-UV method
Assay type: ADME, cell-based
experimentalSetup: read-out: Stability
Provide the reading as a plain figure in %.

Consider the worked cases shown below.
molecule: Cc1c(C(=O)Nc2c(F)c(F)c(-c3ccccc3)c(F)c2F)c(O)nn1C
valueType: remaining at 72 h, 100 µM
uom: %
result: 94
//
molecule: Cc1c(-c2ccc(-c3ccccc3F)cc2)nc2ccc(F)cc2c1C(=O)O
valueType: remaining at 72 h, 100 µM
uom: %
result: 98
//
molecule: C/C(O)=C(\C#N)C(=O)Nc1ccc(C(F)(F)F)cc1 [TERIFLUNOMIDE]
valueType: remaining at 72 h, 100 µM
uom: %
result: 101
//
molecule: O=C(Nc1c(F)c(F)c(-c2ccccc2)c(F)c1F)c1nsnc1O
valueType: remaining at 72 h, 100 µM
uom: %
result: 80

# input for lookup
**Query** Give its remaining at 72 h, 100 µM value. Item: `Cn1nnc(O)c1C(=O)Nc1c(F)c(F)c(-c2ccccc2)c(F)c1F`
**Result** 99
